Target: T1, PSMA Fab (006 PSMA Fab)
T1 construct: also called Anti-PSMA Fab; anti-PSMA Fab
Experiment: phage ELISA; clonal phage on plate-captured PSMA Fab pre-incubated with PSMA antigen as competitor, anti-M13 HRP detection
Where no end group is shown, it is not given here.
Entries and their measured Phage binding ELISA signal, Anti-PSMA Fab with PSMA antigen follow.
Please reply with the value in numeric form only.

Example entries and their recorded answers appear below.
IVPACKPVWMCDGF (tested as crude phage supernatant) [Phage-2928] : 0.11
MHMLCRPAWMCSGF (tested as crude phage supernatant) [Phage-2932] : 0.21

Please look at the following binder next.
(Q) # Phage binding ELISA signal, Anti-PSMA Fab with PSMA antigen lookup, item VWPRCEPQWMCAGF (cysteine pairing not given here; also: peptide displayed as fusion to phage pIII, tested as crude phage supernatant; The label 2923 is printed twice (r2444 and r2446); by the order this row is probably Phage-2922; also called probably Phage-2922) [Phage-2923 (as printed at r2443/r2444; SEQ ID NO: 3238)]
(A) 0.0854
